# target_or_test_system: Myosin light chain kinase, smooth muscle (Homo sapiens) (UniProt Q15746)
# Sequence (Q15746 whole entry): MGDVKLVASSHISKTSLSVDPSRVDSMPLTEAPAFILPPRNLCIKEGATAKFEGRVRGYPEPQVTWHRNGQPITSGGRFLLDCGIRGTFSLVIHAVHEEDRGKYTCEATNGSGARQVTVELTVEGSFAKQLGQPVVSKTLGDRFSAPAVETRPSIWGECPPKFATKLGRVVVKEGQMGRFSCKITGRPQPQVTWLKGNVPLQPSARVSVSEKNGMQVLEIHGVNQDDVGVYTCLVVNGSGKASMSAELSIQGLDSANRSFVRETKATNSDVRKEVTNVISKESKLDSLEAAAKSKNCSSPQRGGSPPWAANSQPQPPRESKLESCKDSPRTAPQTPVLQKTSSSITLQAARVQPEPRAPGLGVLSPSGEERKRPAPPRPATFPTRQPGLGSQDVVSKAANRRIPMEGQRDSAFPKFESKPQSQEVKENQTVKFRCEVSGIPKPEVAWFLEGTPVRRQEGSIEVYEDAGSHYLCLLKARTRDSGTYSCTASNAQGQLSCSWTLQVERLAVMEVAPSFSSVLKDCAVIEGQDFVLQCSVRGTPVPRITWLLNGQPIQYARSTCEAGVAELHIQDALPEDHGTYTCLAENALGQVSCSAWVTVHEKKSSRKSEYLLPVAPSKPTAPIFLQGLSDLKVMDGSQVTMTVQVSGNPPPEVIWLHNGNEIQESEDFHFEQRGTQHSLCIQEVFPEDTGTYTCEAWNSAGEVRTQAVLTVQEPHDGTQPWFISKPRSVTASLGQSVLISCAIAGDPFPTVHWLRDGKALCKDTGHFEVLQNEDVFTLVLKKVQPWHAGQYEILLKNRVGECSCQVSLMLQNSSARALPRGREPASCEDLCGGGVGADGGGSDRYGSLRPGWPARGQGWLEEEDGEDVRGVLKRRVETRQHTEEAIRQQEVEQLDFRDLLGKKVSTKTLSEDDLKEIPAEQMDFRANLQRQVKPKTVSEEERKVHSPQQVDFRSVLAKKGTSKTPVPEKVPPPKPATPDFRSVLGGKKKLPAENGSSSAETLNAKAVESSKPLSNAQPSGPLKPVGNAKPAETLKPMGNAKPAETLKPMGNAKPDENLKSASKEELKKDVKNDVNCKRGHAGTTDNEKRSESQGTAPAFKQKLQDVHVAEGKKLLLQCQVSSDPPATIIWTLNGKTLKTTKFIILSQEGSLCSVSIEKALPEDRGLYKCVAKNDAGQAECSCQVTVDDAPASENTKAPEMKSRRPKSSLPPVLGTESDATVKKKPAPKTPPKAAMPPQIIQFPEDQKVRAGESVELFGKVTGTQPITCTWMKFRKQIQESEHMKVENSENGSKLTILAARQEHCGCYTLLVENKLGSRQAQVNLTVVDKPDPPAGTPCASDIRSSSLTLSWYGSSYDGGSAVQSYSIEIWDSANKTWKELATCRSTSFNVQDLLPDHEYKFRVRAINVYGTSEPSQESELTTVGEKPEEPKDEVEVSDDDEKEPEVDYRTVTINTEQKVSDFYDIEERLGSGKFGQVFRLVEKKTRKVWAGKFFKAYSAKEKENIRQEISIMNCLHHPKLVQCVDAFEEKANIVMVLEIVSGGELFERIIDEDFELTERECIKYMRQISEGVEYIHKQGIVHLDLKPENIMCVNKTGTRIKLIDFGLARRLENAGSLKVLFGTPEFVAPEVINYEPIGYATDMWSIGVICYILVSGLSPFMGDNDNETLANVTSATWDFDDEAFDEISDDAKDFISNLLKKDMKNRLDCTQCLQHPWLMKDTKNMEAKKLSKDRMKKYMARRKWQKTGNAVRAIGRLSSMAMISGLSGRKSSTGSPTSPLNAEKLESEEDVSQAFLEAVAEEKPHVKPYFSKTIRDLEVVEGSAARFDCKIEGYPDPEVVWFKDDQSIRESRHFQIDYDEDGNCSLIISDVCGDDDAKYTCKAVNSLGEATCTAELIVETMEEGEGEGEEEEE
# assay_notes: Inhibition of smMLCK assessed as residual enzyme activity at 10 uM relative to untreated control
measurement_type: Activity (%)
Your answer is read as %, so omit the unit and give the number.

Some solved cases for reference:
smiles_entry: O=Cc1c[nH]c2c1ccc1c3ccccc3[nH]c12
value_measured: 60
--
smiles_entry: c1ccc2c(c1)[nH]c1c2ccc2cc[nH]c21
value_measured: 86
--
smiles_entry: O=Cc1c[nH]c2ccc3c4ccccc4[nH]c3c12
value_measured: 91

Proceed to the following item.
Which Activity value belongs to c1ccc2c(c1)[nH]c1c3cc[nH]c3ccc21 ?
82

###

# target_or_test_system: Serine/threonine-protein kinase pim-2 (Homo sapiens) (UniProt Q9P1W9)
# Sequence (Q9P1W9 whole entry, looked up): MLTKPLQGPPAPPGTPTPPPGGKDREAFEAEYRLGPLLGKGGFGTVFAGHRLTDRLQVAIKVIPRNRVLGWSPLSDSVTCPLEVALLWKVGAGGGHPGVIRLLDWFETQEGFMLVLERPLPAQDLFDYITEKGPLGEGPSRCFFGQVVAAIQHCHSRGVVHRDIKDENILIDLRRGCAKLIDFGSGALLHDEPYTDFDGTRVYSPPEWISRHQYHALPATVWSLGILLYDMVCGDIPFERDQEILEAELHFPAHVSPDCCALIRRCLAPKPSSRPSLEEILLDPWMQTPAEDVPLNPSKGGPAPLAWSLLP
# assay_notes: Inhibition of Pim-2 assessed as residual enzyme activity at 10 uM relative to untreated control
Grouping by measured Activity is done with the following cut points: b0: < 50%; b1: ≥ 50% and < 60%; b2: ≥ 60%

Consider the worked cases shown below.
smiles_entry: O=Cc1c[nH]c2c1ccc1c3cc(-c4ccc(-c5ccccc5)cc4)ccc3[nH]c12
discrete_label: b2

smiles_entry: CCN(CC)C(=O)/C(=N\O)c1c[nH]c2c1ccc1c3ccccc3[nH]c12
discrete_label: b0

Kindly identify the class of O=Cc1c[nH]c2c1ccc1c3cc(-c4ccccc4)ccc3[nH]c12 .
b1

Each compound maps to one class by Activity. Which class for O=Cc1c[nH]c2c1ccc1c3cc(Br)ccc3[nH]c12 ?
b1

Please let me know in which category the item COc1cccc(-c2ccc3[nH]c4c(ccc5c(C=O)c[nH]c54)c3c2)c1 belongs.
b0

Lab note: which band did O=S(=O)(c1ccccc1)n1ccc2ccc3c4ccccc4[nH]c3c21 land in?
b2

Which class is correct for the following compound? O=Cc1c[nH]c2ccc3c4ccccc4[nH]c3c12
b2

Assign a bin to O=C(c1c[nH]c2c1ccc1c3ccccc3[nH]c12)C(F)(F)F
b0

Hello team, could you let me know which band the following compound falls into: NC(=O)c1c[nH]c2c1ccc1c3ccccc3[nH]c12
b0

Class (by measured Activity) for OCc1c[nH]c2c1ccc1c3ccccc3[nH]c12
b0

###

# Activity listing for each entry below
# target_or_test_system: Ribosomal protein S6 kinase alpha-5 (Homo sapiens) (UniProt O75582)
# Sequence (O75582 whole entry, looked up): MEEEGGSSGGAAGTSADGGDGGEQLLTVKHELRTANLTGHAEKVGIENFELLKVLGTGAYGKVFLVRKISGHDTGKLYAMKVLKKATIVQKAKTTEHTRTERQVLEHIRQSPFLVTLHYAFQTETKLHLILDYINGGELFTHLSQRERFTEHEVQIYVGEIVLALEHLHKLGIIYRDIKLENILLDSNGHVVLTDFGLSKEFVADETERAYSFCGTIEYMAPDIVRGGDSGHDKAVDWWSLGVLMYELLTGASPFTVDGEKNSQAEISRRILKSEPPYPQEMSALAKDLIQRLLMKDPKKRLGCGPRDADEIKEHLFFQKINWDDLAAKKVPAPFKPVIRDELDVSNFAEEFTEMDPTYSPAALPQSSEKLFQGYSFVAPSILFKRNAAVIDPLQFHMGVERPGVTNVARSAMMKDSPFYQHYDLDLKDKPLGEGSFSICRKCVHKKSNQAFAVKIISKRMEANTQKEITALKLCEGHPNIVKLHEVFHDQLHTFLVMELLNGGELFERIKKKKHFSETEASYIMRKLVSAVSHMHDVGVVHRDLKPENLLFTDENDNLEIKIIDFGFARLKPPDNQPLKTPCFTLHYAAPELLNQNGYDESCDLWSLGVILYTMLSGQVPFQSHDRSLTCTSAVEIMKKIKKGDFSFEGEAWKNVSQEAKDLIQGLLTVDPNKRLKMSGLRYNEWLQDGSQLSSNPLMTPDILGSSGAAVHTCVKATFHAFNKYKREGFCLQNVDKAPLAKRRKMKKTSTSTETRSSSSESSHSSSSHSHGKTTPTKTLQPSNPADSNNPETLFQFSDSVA
# assay_notes: Inhibition of MSK1 assessed as residual enzyme activity at 10 uM relative to untreated control
Reply with the number and its unit after it.

smiles_entry: O=Cc1c[nH]c2ccc3c4ccccc4[nH]c3c12
Activity: 84%
--
smiles_entry: c1ccc2c(c1)[nH]c1c3cc[nH]c3ccc21
Activity: 94%
--
smiles_entry: c1ccc2c(c1)[nH]c1c2ccc2cc[nH]c21
Activity: 90%

Activity for O=Cc1c[nH]c2c1ccc1c3ccccc3[nH]c12 ?
71%

###

In this section, each of the compounds is paired with its reported Activity.
# target_or_test_system: Mitogen-activated protein kinase 8 (Homo sapiens) (UniProt P45983)
# Sequence (P45983 whole entry): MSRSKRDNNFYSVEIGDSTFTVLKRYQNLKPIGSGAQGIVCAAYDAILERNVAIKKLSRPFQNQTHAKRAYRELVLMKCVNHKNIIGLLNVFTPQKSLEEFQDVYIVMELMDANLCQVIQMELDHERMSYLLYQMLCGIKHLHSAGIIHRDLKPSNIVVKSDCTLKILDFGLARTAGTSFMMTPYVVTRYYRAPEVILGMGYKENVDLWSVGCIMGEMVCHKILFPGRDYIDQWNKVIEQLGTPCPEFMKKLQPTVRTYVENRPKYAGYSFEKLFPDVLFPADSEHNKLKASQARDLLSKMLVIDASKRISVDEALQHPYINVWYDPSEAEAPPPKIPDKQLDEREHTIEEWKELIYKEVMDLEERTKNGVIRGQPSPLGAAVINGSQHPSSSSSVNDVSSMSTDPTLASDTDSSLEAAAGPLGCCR
# assay_notes: Inhibition of JNK1 assessed as residual enzyme activity at 10 uM relative to untreated control
Enter your answer as a number in %; do not include the unit.

smiles_entry: O=Cc1c[nH]c2ccc3c4ccccc4[nH]c3c12
unit_label: %
Activity: 113

Short answer please: Activity, Mitogen-activated protein kinase 8 (Homo sapiens) (UniProt P45983), entry O=Cc1c[nH]c2c1ccc1c3ccccc3[nH]c12
102

What reported Activity corresponds to c1ccc2c(c1)[nH]c1c3cc[nH]c3ccc21 on Mitogen-activated protein kinase 8 (Homo sapiens) (UniProt P45983)?
116

Lab request: please report Activity under test system Mitogen-activated protein kinase 8 (Homo sapiens) (UniProt P45983) for c1ccc2c(c1)[nH]c1c2ccc2cc[nH]c21
102
